For each entry below, report its CC50 value.
experiment-description: Compound toxicity assay: ^3 H-LEU HeLa cell translation (cytotoxicity)
Format: cell-based
condition-summary: human; HeLa cells, translational activity, overnight incubation at 37° C.; read-out: Cytotoxicity, ^3 H-LEU Assay IC50
Value expressed in µg/mL; do not type the unit.

I am curious: what CC50 value has been reported for COc1cc(=O)c2cc(C)c(C)cc2n1Cc1ccc(O[Si](C)(C)C(C)(C)C)cc1 ?
25

I am curious: what CC50 value has been reported for CCCCCCCn1c(OC)cc(=O)c2ccccc21 ?
45

I am curious: what CC50 value has been reported for COc1c(I)c(=O)c2ccccc2n1Cc1ccccc1 ?
27

I am curious: what CC50 value has been reported for COc1c(Cl)c(=O)c2cc(C)ccc2n1Cc1ccccc1 ?
12

I am curious: what CC50 value has been reported for COc1cc(=O)c2ccccc2n1Cc1ccccc1 ?
45

I am curious: what CC50 value has been reported for CCOC(=O)c1c(OC)n(Cc2ccccc2)c2ccc(C)cc2c1=O ?
79

I am curious: what CC50 value has been reported for CCCCCCn1c(OC)cc(=O)c2cccc(C)c21 ?
27

I am curious: what CC50 value has been reported for COc1cc(=O)c2cc(C)ccc2n1Cc1ccccc1 ?
85

I am curious: what CC50 value has been reported for CCCCCCn1c(OC)cc(=O)c2cccc(OC)c21 ?
21

Source: patent US5175151A
